tested on: HT-1080; assay: Induction of cell death in human HT1080 cells in presence of MEK 1/2 inhibitor by trypan blue exclusion method; type: functional, cell-based
Readout kind: pIC50
One number for each entry, as −log10 of the molar value.

Reported pIC50 for HT-1080, given CCOc1ccccc1-n1c(C(C)N2CCN(C(=O)COc3ccc(Cl)cc3)CC2)nc2ccccc2c1=O (stereo unspecified) [ERASTIN] ?
5.22
